Target: Histone deacetylase 5 (Homo sapiens, UniProt Q9UQL6)
Sequence (Q9UQL6 whole entry, the tested form may be a part): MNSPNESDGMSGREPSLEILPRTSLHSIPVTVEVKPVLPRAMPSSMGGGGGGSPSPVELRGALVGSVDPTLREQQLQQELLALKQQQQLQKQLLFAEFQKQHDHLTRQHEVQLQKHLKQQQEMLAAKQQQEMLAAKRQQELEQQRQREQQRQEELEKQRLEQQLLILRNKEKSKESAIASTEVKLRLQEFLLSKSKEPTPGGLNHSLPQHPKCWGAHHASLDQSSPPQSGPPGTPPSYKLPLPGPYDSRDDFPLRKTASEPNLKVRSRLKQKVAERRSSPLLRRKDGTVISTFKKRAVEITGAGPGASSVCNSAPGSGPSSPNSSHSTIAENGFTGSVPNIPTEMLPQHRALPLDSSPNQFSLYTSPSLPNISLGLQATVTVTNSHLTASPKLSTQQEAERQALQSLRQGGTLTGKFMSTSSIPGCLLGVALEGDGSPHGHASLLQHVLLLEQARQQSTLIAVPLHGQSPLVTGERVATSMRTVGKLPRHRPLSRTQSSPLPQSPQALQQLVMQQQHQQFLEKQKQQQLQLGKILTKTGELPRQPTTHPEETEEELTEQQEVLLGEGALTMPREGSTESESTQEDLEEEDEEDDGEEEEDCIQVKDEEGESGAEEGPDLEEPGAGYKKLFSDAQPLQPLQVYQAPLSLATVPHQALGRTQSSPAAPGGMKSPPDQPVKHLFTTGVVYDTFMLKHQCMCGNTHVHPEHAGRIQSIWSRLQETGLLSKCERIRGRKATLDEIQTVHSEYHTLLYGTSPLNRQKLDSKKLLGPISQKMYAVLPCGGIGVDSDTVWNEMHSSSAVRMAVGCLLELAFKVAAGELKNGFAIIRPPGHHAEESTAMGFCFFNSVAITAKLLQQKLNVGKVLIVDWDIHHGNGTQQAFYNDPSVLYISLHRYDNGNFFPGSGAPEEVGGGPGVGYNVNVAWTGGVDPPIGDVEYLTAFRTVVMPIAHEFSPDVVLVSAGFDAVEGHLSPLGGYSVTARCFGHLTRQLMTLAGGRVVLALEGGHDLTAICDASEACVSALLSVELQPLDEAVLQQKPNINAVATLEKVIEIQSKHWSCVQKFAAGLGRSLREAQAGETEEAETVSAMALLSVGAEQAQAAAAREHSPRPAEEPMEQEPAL
Assay: Inhibition of C-terminal His tagged human recombinant HDAC5 (657 to 1123 residues) expressed in Baculovirus infected insect cells in presence of ATP
pIC50: −log10 of the molar value.
Here, each record is paired with measured pIC50 data.
outcome measure: pIC50

compound | experimental system | readout value
O=C(CCCCCCn1cc(-c2ncnc3[nH]ccc23)cn1)NO | Histone deacetylase 5 (Homo sapiens, UniProt Q9UQL6) | 4.98
CC(CCCCCC(=O)NO)n1cc(-c2ncnc3[nH]ccc23)cn1 (configuration not stated) | Histone deacetylase 5 (Homo sapiens, UniProt Q9UQL6) | 5.13

---

Experiment: Clearance in Wistar rat at 1 mg/kg, iv by LC-MS/MS analysis
Assay type: ADME, organism-based
Details: in vivo

input smiles | clearance, L/h/kg
O=C(CCCCCCn1cc(-c2ncnc3[nH]ccc23)cn1)NO | 5.71

---

Assay: Cmax in Wistar rat at 5 mg/kg, po administered via gavage by LC-MS/MS analysis
Format: ADME, organism-based
Design: dose 5 mg/kg, route oral
Conditions: in vivo
outcome measure: Cmax (ng/mL)

input smiles | measure unit | readout value
O=C(CCCCCCn1cc(-c2ncnc3[nH]ccc23)cn1)NO | ng/mL | 15.9

---

Assay: Oral bioavailability in Wistar rat at 5 mg/kg administered via gavage by LC-MS/MS analysis
Assay type: ADME, organism-based
Settings: in vivo
outcome measure: bioavailability (%)

input smiles | measure unit | readout value
O=C(CCCCCCn1cc(-c2ncnc3[nH]ccc23)cn1)NO | % | 1.4

---

Target: Histone deacetylase 8 (Homo sapiens, UniProt Q9BY41)
Sequence (Q9BY41 whole entry, the tested form may be a part): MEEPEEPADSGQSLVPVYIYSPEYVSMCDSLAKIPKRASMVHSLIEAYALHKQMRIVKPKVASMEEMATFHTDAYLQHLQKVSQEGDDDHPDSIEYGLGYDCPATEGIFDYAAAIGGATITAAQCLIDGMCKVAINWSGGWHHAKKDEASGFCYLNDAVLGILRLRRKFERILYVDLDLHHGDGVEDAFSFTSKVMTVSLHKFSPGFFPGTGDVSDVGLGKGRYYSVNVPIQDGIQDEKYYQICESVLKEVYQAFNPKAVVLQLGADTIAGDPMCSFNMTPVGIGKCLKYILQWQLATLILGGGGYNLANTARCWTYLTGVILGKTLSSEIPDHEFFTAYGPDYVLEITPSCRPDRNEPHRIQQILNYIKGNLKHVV
Assay: Inhibition of C-terminal His tagged human recombinant HDAC8 (1 to 377 residues) expressed in Baculovirus infected insect cells in presence of ATP

molecule | measure unit | IC50
O=C(CCCCCCn1cc(-c2ncnc3[nH]ccc23)cn1)NO | nM | 469
CC(CCCCCC(=O)NO)n1cc(-c2ncnc3[nH]ccc23)cn1 (configuration not stated) | nM | 310

---

Please consider the recorded pIC50 for Tyrosine-protein kinase JAK2 (Homo sapiens, UniProt O60674) in what follows.
pIC50: −log10 of the molar value.
outcome measure: pIC50

compound | experimental system | readout value
O=C(CCCCCCC(=O)Nc1ccc(CCCn2cc(-c3ncnc4[nH]ccc34)cn2)cc1)NO | Tyrosine-protein kinase JAK2 (Homo sapiens, UniProt O60674) | 6.06
O=C(/C=C/c1ccc(NCCCn2cc(-c3ncnc4[nH]ccc34)cn2)cc1)NO | Tyrosine-protein kinase JAK2 (Homo sapiens, UniProt O60674) | 6.30
O=C(CCCCCCC(=O)Nc1ccc(NC(=O)CCCn2cc(-c3ncnc4[nH]ccc34)cn2)cc1)NO | Tyrosine-protein kinase JAK2 (Homo sapiens, UniProt O60674) | 5.92
O=C(CCCCCCn1cc(-c2ncnc3[nH]ccc23)cn1)NO | Tyrosine-protein kinase JAK2 (Homo sapiens, UniProt O60674) | 7.12
CC(CCCCCC(=O)NO)n1cc(-c2ncnc3[nH]ccc23)cn1 (stereo not given) | Tyrosine-protein kinase JAK2 (Homo sapiens, UniProt O60674) | 7.19

---

Here, each record is paired with measured IC50 data.
System: PC-3
Assay: cells
Assay type: functional, cell-based
Details: Homo sapiens, PC-3, 72 h
outcome measure: IC50

input smiles | readout value
O=C(CCCCCn1cc(-c2ncnc3[nH]ccc23)cn1)NO | 18.8 µM
O=C(/C=C/c1ccc(NCCCn2cc(-c3ncnc4[nH]ccc34)cn2)cc1)NO | 17 µM
O=C(CCCCn1cc(-c2ncnc3[nH]ccc23)cn1)NO | > 100 µM
O=C(CCCCCCn1cc(-c2ncnc3[nH]ccc23)cn1)NO | 2.41 µM
CN1CCc2c(c3ccccc3n2Cc2ccc(C(=O)NO)cc2)C1 | 8.6 µM
O=C(CCCn1cc(-c2ncnc3[nH]ccc23)cn1)NO | > 100 µM
O=C(CCCCCCC(=O)Nc1ccc(NC(=O)CCCn2cc(-c3ncnc4[nH]ccc34)cn2)cc1)NO | > 100 µM
O=C(CCCCCCCn1cc(-c2ncnc3[nH]ccc23)cn1)NO | 12.9 µM
O=C(CCCCCCC(=O)Nc1ccc(NCCCn2cc(-c3ncnc4[nH]ccc34)cn2)cc1)NO | 23.9 µM
O=C(CCCCCCCCCCn1cc(-c2ncnc3[nH]ccc23)cn1)NO | 54.3 µM
O=C(CCCCCCC(=O)Nc1ccc(CCCn2cc(-c3ncnc4[nH]ccc34)cn2)cc1)NO | > 50 µM
